Tested on: velvetleaf (Abutilon theophrasti)
Method Description: Test E greenhouse herbicide test, pre- and postemergence
Assay type: in vivo
Reported Conditions: 125 g ai/ha, Preemergence; scale 0 to 100 (0 no effect, 100 complete control)
Assay Readout: Plant response rating, Velvetleaf
Numbers only.

Incoming: Recorded Plant response rating, Velvetleaf for COC(=O)Oc1c(C)nn(C)c(=O)c1-c1c(C)sc2ccc(C)cc12 [Compound 80] , please?
Outgoing: 90

Incoming: Plant response rating, Velvetleaf for CCCC(=O)Oc1c(C)nn(C)c(=O)c1-c1c(C)sc2ccc(C)cc12 [Compound 105] ?
Outgoing: 95

Incoming: Give its Plant response rating, Velvetleaf value. Item: CCc1sc2ccc(C)cc2c1-c1c(O)c(C)nn(C)c1=O [Compound 47]
Outgoing: 75

Attention now turns to another entry.
Incoming: Can you share its Plant response rating, Velvetleaf? I mean this compound: Cc1ccc2sc(C)c(-c3c(OC(=O)OC(C)C)c(C)nn(C)c3=O)c2c1 [Compound 66]
Outgoing: 80

====

What Pigweed plant response rating was measured for each of the following?
Tested on: pigweed (Amaranthus retroflexus)
Method Description: Test C greenhouse herbicide test, pre- and postemergence
Assay type: in vivo
Reported Conditions: Postemergence, 31 g ai/ha; 0 to 100 scale (0 no effect, 100 complete control)
Give bare numbers.

Incoming: Query (compound): "Cc1ccc2ccccc2c1-c1c(O)c(I)nn(C)c1=O" ; field requested: Pigweed plant response rating
Outgoing: 95

# batch: return Pigweed plant response rating for each of the 4 compounds below
1. Cc1cc2ccccc2c(-c2c(O)c(C)nn(C)c2=O)c1C
2. Cn1nc(Br)c(O)c(-c2cccc3ccccc23)c1=O
3. CCc1oc2ccc(C)cc2c1-c1c(O)c(C)nn(C)c1=O
4. Cc1nn(C)c(=O)c(-c2cccc3ccccc23)c1O

Outgoing:
1: 90; 2: 75; 3: 55; 4: 50

// each listed compound needs a value for Pigweed plant response rating
1. CCc1sc2ccc(C)cc2c1-c1c(O)c(C)nn(C)c1=O
2. Cc1nn(C)c(=O)c(-c2ccc(F)c3ccccc23)c1O
3. CCc1ccc2ccccc2c1-c1c(O)c(C)nn(C)c1=O

Outgoing:
1. 90
2. 65
3. 75

====

Test system: nutsedge, yellow (yellow nutsedge, Cyperus esculentus)
Method Description: Test C greenhouse herbicide test, pre- and postemergence
Format: in vivo
Reported Conditions: Postemergence, 250 g ai/ha; scale 0 to 100, 0 no effect, 100 complete control; 13 to 15 d
Assay Readout: Plant response rating, Nutsedge, Yellow
Give bare numbers.

Worked examples follow.
Incoming: Query (compound): "CCCC(=O)Oc1c(C)nn(C)c(=O)c1-c1c(C)sc2ccc(C)cc12" ; field requested: Plant response rating, Nutsedge, Yellow
Outgoing: 90

Incoming: Would you kindly share the measured Plant response rating, Nutsedge, Yellow for "CCc1sc2c(C)cc(C)cc2c1-c1c(O)c(C)nn(C)c1=O" ?
Outgoing: 90

Incoming: Look at this compound and give its reported Plant response rating, Nutsedge, Yellow. "Cc1nn(C)c(=O)c(-c2ccc(Cl)c3ccccc23)c1O"
Outgoing: 85

Incoming: Fill in: Plant response rating, Nutsedge, Yellow of "CC(=O)Oc1c(C)nn(C)c(=O)c1-c1c(C)sc2ccc(Cl)cc12" is ___
Outgoing: 75

Incoming: Which Plant response rating, Nutsedge, Yellow value is on record for "Cc1ccc2ccccc2c1-c1c(O)c(C(F)(F)F)nn(C)c1=O" ?
Outgoing: 75

Take each entry in turn and give its Plant response rating, Nutsedge, Yellow.
1. Cc1nn(C)c(=O)c(-c2cccc3ccccc23)c1O
2. CC(=O)Oc1c(C)nn(C)c(=O)c1-c1c(C)cc(C)c2ccccc12
3. Cc1nn(C)c(=O)c(-c2ccc(F)c3ccccc23)c1O
4. Cc1ccc2ccccc2c1-c1c(O)c(Br)nn(C)c1=O
5. Cn1nc(Br)c(O)c(-c2cccc3ccccc23)c1=O

Outgoing:
45
85
80
85
95
